tested-system: Drosophila imaginal morphogenesis protein-late 2 protein (Imp-L2) (Drosophila melanogaster) (UniProt Q09024)
Sequence (Q09024 26-267): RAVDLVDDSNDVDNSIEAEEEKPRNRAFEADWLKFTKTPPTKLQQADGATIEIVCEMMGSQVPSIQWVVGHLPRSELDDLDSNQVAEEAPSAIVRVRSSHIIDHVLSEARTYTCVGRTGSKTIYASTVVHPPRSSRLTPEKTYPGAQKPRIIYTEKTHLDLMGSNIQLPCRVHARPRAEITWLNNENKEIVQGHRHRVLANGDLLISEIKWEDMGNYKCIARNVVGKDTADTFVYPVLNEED
experimental-protocol: ITC; DILP5:Imp-L2 binding as a function of salt: 300 mM NaCl
value-kind: Kd (pM)
Numbers only; they are read as pM.

**Query** Return Kd for the following binder: Drosophila insulin-like peptide 5, C4 variant (B2-B29) (ligand) chain 1: NSLRACGPALMDMLRVACPNGFNSMFAK chain 2: DFRGVVDSCCRNSCSFSTLRAYCDS
**Result** 1
